Cited source: patent US20140112915A1

# SYSTEM_TESTED: T1, Recombinant human IL-18 (human, UniProt Q14116 37-193)
# T1 sequence: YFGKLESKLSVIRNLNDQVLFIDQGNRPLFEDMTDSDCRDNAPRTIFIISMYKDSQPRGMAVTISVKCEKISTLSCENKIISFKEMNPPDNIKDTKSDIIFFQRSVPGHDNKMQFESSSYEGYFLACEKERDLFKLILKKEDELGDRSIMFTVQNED
# METHOD_SUMMARY: cell-based or functional assay
REPORTED_PROPERTY: IC50, inhibition of IFN-γ release, human whole blood, recombinant human IL-18 (7 nM)
Record the value in nM, omitting the unit from your answer.

Exercise: Requested read-out: IC50, inhibition of IFN-γ release, human whole blood, recombinant human IL-18 (7 nM). Entry: MOR13342 (antibody, human IgG1, kappa, L234A L235A, V domains shown) VH: QVQLVQSGAEVKKPGSSVKVSCKASGGTFSTFSISWVRQAPGQGLEWMGGIIPIFGTANYAQKFQGRVTITADESTSTAYMELSSLRSEDTAVYYCARGGYGGYYYFDYWGQGTLVTVSS VL: DIQMTQSPSSLSASVGDRVTITCRASQSISNRLNWYQQKPGKAPKLLIYKGSTLQSGVPSRFSGSGSGTDFTLTISSLQPEDFATYYCQQHYVWSTTFGQGTKVEIKR
Key: 6.6

Exercise: Requested read-out: IC50, inhibition of IFN-γ release, human whole blood, recombinant human IL-18 (7 nM). Entry: MOR10502 (antibody, human IgG1, lambda, L234A L235A, V domains shown, also called MOR010502) VH: EVQLQESGPGLVKPGETLSLTCTVSGGSISTGSYYWNWIRQAPGKGLEWIGEIHGHGFTFYNPSLKSRVTISVDTSKNQFSLKLSSVTAADTAVYYCARTTRYWMSHILAYGMDYWGQGTLVTVSS VL: DIVLTQPPSVSGAPGQRVTISCSGSSSNIGNHYVSWYQQLPGTAPKLLIYANTKRPSGVPDRFSGSKSGTSASLAITGLQSEDEADYYCSSYDGSQSIVFGGGTKLTVLG
Key: 17.9

Exercise: Requested read-out: IC50, inhibition of IFN-γ release, human whole blood, recombinant human IL-18 (7 nM). Entry: MOR9464_N30H (antibody, human IgG1, lambda, L234A L235A, V domains shown) VH: EVQLVQSGAEVKKPGSSVKVSCKASGGTFHSYAISWVRQAPGQGLEWMGNIIPMTGQTYYAQKFQGRVTITADESTSTAYMELSSLRSEDTAVYYCARAAYHPLVFDNWGQGTLVTVSS VL: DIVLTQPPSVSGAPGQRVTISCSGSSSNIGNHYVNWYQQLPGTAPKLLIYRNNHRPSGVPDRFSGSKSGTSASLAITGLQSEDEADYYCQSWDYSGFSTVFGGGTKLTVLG
Key: 11.9

Exercise: Requested read-out: IC50, inhibition of IFN-γ release, human whole blood, recombinant human IL-18 (7 nM). Entry: MOR13347 (antibody, human IgG1, kappa, L234A L235A, V domains shown) VH: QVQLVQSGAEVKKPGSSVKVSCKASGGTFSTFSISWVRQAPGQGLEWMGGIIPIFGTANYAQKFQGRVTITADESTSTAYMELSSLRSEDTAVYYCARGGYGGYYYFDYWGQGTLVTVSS VL: DIQMTQSPSSLSASVGDRVTITCRASQSISNRLNWYQQKPGKAPKLLIYKGSTLQSGVPSRFSGSGSGTDFTLTISSLQPEDFATYYCQQHYQWLTTFGQGTKVEIKR
Key: 3.5

Exercise: Requested read-out: IC50, inhibition of IFN-γ release, human whole blood, recombinant human IL-18 (7 nM). Entry: MOR13341 (antibody, human IgG1, kappa, L234A L235A, V domains shown) VH: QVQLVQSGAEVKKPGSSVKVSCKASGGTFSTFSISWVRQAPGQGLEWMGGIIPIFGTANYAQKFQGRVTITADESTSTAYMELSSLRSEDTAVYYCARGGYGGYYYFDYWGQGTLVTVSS VL: DIQMTQSPSSLSASVGDRVTITCRASQSISNRLNWYQQKPGKAPKLLIYKGSTLQSGVPSRFSGSGSGTDFTLTISSLQPEDFATYYCQQHKVWLTTFGQGTKVEIKR
Key: 5.6
